B1: library; numbered along this chain (parent)
chain: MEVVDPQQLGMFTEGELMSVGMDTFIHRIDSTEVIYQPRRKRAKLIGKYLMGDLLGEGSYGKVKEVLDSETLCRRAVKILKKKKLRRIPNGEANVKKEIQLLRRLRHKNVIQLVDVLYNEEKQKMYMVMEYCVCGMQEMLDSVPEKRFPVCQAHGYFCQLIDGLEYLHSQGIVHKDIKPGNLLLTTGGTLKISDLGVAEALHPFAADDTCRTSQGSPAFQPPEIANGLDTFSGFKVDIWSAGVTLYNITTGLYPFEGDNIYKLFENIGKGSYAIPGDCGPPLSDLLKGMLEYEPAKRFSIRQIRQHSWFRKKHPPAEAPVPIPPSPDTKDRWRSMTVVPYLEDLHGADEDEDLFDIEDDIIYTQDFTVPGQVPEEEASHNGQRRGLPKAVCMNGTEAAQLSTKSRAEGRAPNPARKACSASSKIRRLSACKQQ

# Variants of: B1
# protocolText: STK11 functional score (HeLa growth suppression), rescaled enrichment; synonymous median = 1, nonsense median = 0 (normalised score)
# experimentalSetup: with HeLa; variant type: missense
# strict inequality: STK11 functional score < 1 yields TRUE, everything else yields FALSE

*Q* State whether 1 exceeds STK11 functional score recorded for L113R .
*A* TRUE

*Q* Strictly below 1: is that where STK11 functional score of F298Y sits?
*A* TRUE

*Q* Is the reported STK11 functional score for S142A strictly below 1?
*A* FALSE

*Q* Would you kindly verify if STK11 functional score of T402I is strictly less than 1?
*A* FALSE

*Q* State whether 1 exceeds STK11 functional score recorded for D229M .
*A* FALSE

*Q* Dear colleague, could you confirm whether STK11 functional score of L72T falls below 1? Thanks.
*A* FALSE

*Q* # strict comparison: is reported STK11 functional score < 1? input = I274H
*A* TRUE

*Q* Consider R384T . Does its STK11 functional score lie strictly below 1?
*A* FALSE

*Q* Item Y362F : STK11 functional score beneath 1, strictly?
*A* FALSE

*Q* Bench note: check whether K287I shows STK11 functional score below 1
*A* FALSE

*Q* Regarding L117W , kindly confirm whether its STK11 functional score is beneath 1.
*A* FALSE
